Assay Method Text: Photophysical properties of Cy5 dyes and hybrid tracers in PBS
Type: physicochemical
Exercise: for every item that follows, state its recorded ΦF (quantum yield).

Which ΦF (quantum yield) reading was recorded for the molecule CC(=O)SCC(=O)NC(CO)C(=O)NC(CO)C(=O)NC(CO)C(=O)NCCCCCC(=O)NCCCCN1C(=CC=CC=CC2=[N+](CCCCCC(=O)NCCCCC(NC(=O)NC(CCC(=O)O)C(=O)O)C(=O)O)c3ccc4ccccc4c3C2(C)C)C(C)(C)c2c1ccc1ccccc21 (centres unmarked) ?
14%

Param item: CC(=O)SCC(=O)NC(CO)C(=O)NC(CO)C(=O)NC(CO)C(=O)NCCCCCC(=O)NCCCCN1C(=CC=CC=CC2=[N+](CCCCCC(=O)NCCCCC(NC(=O)NC(CCC(=O)O)C(=O)O)C(=O)O)c3ccccc3C2(C)C)C(C)(C)c2c1ccc1ccccc21 (centres unmarked)
9%

Param item: CC(=O)SCC(=O)NC(CO)C(=O)NC(CO)C(=O)NC(CO)C(=O)NCCCCCC(=O)NCCCCN1C(=CC=CC=CC2=[N+](CCCCCC(=O)NCCCCC(NC(=O)NC(CCC(=O)O)C(=O)O)C(=O)O)c3ccc4ccccc4c3C2(C)C)C(C)(C)c2ccccc21 (centres unmarked)
9%

Param item: CC(=O)SCC(=O)NC(CO)C(=O)NC(CO)C(=O)NC(CO)C(=O)NCCCCCC(=O)NCCCCN1C(=CC=CC=CC2=[N+](CCCCCC(=O)NCCCCC(NC(=O)NC(CCC(=O)O)C(=O)O)C(=O)O)c3ccccc3C2(C)C)C(C)(C)c2ccccc21 (centres unmarked)
16%

Param item: CC(=O)SCC(=O)NC(CO)C(=O)NC(CO)C(=O)NC(CO)C(=O)NCCCCCC(=O)NCCCCN1C(=CC=CC=CC2=[N+](CCCCCC(=O)NCCCCC(NC(=O)NC(CCC(=O)O)C(=O)O)C(=O)O)c3ccccc3C2(C)C)C(C)(C)c2cc(S(=O)(=O)[O-])ccc21 (centres unmarked) [EuK-Cy5-(SO3)MAS3]
7%

---

Exercise: for every item that follows, state its recorded fraction unbound.
Tgt: serum albumin (Homo sapiens)
Sequence (P02768 25-609): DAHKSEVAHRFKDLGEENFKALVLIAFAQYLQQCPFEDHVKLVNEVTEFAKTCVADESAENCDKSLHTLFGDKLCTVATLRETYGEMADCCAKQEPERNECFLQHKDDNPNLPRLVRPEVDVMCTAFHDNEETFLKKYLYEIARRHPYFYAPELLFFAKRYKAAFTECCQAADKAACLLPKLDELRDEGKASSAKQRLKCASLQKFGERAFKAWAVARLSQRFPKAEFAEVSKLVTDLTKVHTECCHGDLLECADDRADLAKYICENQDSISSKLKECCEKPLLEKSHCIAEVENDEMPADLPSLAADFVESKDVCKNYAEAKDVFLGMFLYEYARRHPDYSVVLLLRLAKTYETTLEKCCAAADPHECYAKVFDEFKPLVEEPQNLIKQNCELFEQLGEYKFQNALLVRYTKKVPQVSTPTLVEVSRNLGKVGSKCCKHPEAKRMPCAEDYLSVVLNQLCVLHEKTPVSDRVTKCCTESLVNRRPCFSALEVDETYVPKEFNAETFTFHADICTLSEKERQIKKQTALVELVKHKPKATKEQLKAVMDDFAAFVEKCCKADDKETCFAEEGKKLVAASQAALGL
Assay Method Text: Plasma protein binding (serum binding)
Format: in vitro ADME
Measurement Conditions: serum albumin; n = 3 (Table 3)

Which fraction unbound reading was recorded for the compound CC(=O)SCC(=O)NC(CO)C(=O)NC(CO)C(=O)NC(CO)C(=O)NCCCCCC(=O)NCCCCN1C(=CC=CC=CC2=[N+](CCCCCC(=O)NCCCCC(NC(=O)NC(CCC(=O)O)C(=O)O)C(=O)O)c3ccc(S(=O)(=O)[O-])cc3C2(C)C)C(C)(C)c2ccccc21 (centres unmarked) [EuK(SO3)-Cy5-MAS3] ?
0.15

Param item: CC(=O)SCC(=O)NC(CO)C(=O)NC(CO)C(=O)NC(CO)C(=O)NCCCCCC(=O)NCCCCN1C(=CC=CC=CC2=[N+](CCCCCC(=O)NCCCCC(NC(=O)NC(CCC(=O)O)C(=O)O)C(=O)O)c3ccccc3C2(C)C)C(C)(C)c2c1ccc1ccccc21 (centres unmarked) [EuK-Cy5-(Ar)MAS3]
0.11

Param item: CC(=O)SCC(=O)NC(CO)C(=O)NC(CO)C(=O)NC(CO)C(=O)NCCCCCC(=O)NCCCCN1C(=CC=CC=CC2=[N+](CCCCCC(=O)NCCCCC(NC(=O)NC(CCC(=O)O)C(=O)O)C(=O)O)c3ccccc3C2(C)C)C(C)(C)c2cc(S(=O)(=O)[O-])ccc21 (centres unmarked) [EuK-Cy5-(SO3)MAS3]
0.126

Param item: CC(=O)SCC(=O)NC(CO)C(=O)NC(CO)C(=O)NC(CO)C(=O)NCCCCCC(=O)NCCCCN1C(=CC=CC=CC2=[N+](CCCCCC(=O)NCCCCC(NC(=O)NC(CCC(=O)O)C(=O)O)C(=O)O)c3ccc4ccccc4c3C2(C)C)C(C)(C)c2ccccc21 (centres unmarked) [EuK(Ar)-Cy5-MAS3]
0.093

Param item: CC(=O)SCC(=O)NC(CO)C(=O)NC(CO)C(=O)NC(CO)C(=O)NCCCCCC(=O)NCCCCN1C(=CC=CC=CC2=[N+](CCCCCC(=O)NCCCCC(NC(=O)NC(CCC(=O)O)C(=O)O)C(=O)O)c3ccccc3C2(C)C)C(C)(C)c2ccccc21 (centres unmarked) [EuK-Cy5-MAS3]
0.117

---

Exercise: for every item that follows, state its recorded λem.
Assay Method Text: Photophysical properties of Cy5 dyes and hybrid tracers in PBS
Assay type: physicochemical
Number only, in nm; omit the unit.

Which λem reading was recorded for the compound CC(=O)SCC(=O)NC(CO)C(=O)NC(CO)C(=O)NC(CO)C(=O)NCCCCCC(=O)NCCCCN1C(=CC=CC=CC2=[N+](CCCCCC(=O)NCCCCC(NC(=O)NC(CCC(=O)O)C(=O)O)C(=O)O)c3ccccc3C2(C)C)C(C)(C)c2cc(S(=O)(=O)[O-])ccc21 (stereo not drawn) [EuK-Cy5-(SO3)MAS3] ?
664

Param item: CC(=O)SCC(=O)NC(CO)C(=O)NC(CO)C(=O)NC(CO)C(=O)NCCCCCC(=O)NCCCCN1C(=CC=CC=CC2=[N+](CCCCCC(=O)NCCCCC(NC(=O)NC(CCC(=O)O)C(=O)O)C(=O)O)c3ccc4ccccc4c3C2(C)C)C(C)(C)c2c1ccc1ccccc21 (stereo not drawn)
700

Param item: CC(=O)SCC(=O)NC(CO)C(=O)NC(CO)C(=O)NC(CO)C(=O)NCCCCCC(=O)NCCCCN1C(=CC=CC=CC2=[N+](CCCCCC(=O)NCCCCC(NC(=O)NC(CCC(=O)O)C(=O)O)C(=O)O)c3ccccc3C2(C)C)C(C)(C)c2ccccc21 (stereo not drawn)
663

Param item: CC(=O)SCC(=O)NC(CO)C(=O)NC(CO)C(=O)NC(CO)C(=O)NCCCCCC(=O)NCCCCN1C(=CC=CC=CC2=[N+](CCCCCC(=O)NCCCCC(NC(=O)NC(CCC(=O)O)C(=O)O)C(=O)O)c3ccc(S(=O)(=O)[O-])cc3C2(C)C)C(C)(C)c2ccccc21 (stereo not drawn) [EuK(SO3)-Cy5-MAS3]
664

Param item: CC(=O)SCC(=O)NC(CO)C(=O)NC(CO)C(=O)NC(CO)C(=O)NCCCCCC(=O)NCCCCN1C(=CC=CC=CC2=[N+](CCCCCC(=O)NCCCCC(NC(=O)NC(CCC(=O)O)C(=O)O)C(=O)O)c3ccc4ccccc4c3C2(C)C)C(C)(C)c2ccccc21 (stereo not drawn)
682

Param item: CC(=O)SCC(=O)NC(CO)C(=O)NC(CO)C(=O)NC(CO)C(=O)NCCCCCC(=O)NCCCCN1C(=CC=CC=CC2=[N+](CCCCCC(=O)NCCCCC(NC(=O)NC(CCC(=O)O)C(=O)O)C(=O)O)c3ccccc3C2(C)C)C(C)(C)c2c1ccc1ccccc21 (stereo not drawn)
680

---

Tgt: serum albumin (Homo sapiens)
Assay Method Text: Plasma protein binding (serum binding)
Type: in vitro ADME
Measurement Conditions: FIG. 2A

{"columns": ["Compound", "Plasma protein binding (PPB)"],
 "data": [
  ["CC(=O)SCC(=O)NC(CO)C(=O)NC(CO)C(=O)NC(CO)C(=O)NCCCCCC(=O)NCCCCN1C(=CC=CC=CC2=[N+](CCCCCC(=O)NCCCCC(NC(=O)NC(CCC(=O)O)C(=O)O)C(=O)O)c3ccccc3C2(C)C)C(C)(C)c2c1ccc1ccccc21 (stereo not drawn) [EuK-Cy5-(Ar)MAS3]", "highest PPB"],
  ["CC(=O)SCC(=O)NC(CO)C(=O)NC(CO)C(=O)NC(CO)C(=O)NCCCCCC(=O)NCCCCN1C(=CC=CC=CC2=[N+](CCCCCC(=O)NCCCCC(NC(=O)NC(CCC(=O)O)C(=O)O)C(=O)O)c3ccc4ccccc4c3C2(C)C)C(C)(C)c2ccccc21 (stereo not drawn) [EuK(Ar)-Cy5-MAS3]", "highest PPB"],
  ["CC(=O)SCC(=O)NC(CO)C(=O)NC(CO)C(=O)NC(CO)C(=O)NCCCCCC(=O)NCCCCN1C(=CC=CC=CC2=[N+](CCCCCC(=O)NCCCCC(NC(=O)NC(CCC(=O)O)C(=O)O)C(=O)O)c3ccc4ccccc4c3C2(C)C)C(C)(C)c2c1ccc1ccccc21 (stereo not drawn) [EuK(Ar)-Cy5-(Ar)MAS3]", "highest PPB"]
]}

---

Exercise: for every item that follows, state its recorded Serum stability after 24 h, remaining absorbance.
Assay Method Text: Stability in serum at 37° C., absorbance and fluorescence after 24 h
Format: in vitro ADME
Measurement Conditions: n = 2
Number only, in % remaining; omit the unit.

Which Serum stability after 24 h, remaining absorbance reading was recorded for the molecule CC(=O)SCC(=O)NC(CO)C(=O)NC(CO)C(=O)NC(CO)C(=O)NCCCCCC(=O)NCCCCN1C(=CC=CC=CC2=[N+](CCCCCC(=O)NCCCCC(NC(=O)NC(CCC(=O)O)C(=O)O)C(=O)O)c3ccc(S(=O)(=O)[O-])cc3C2(C)C)C(C)(C)c2ccccc21 (stereo not drawn) [EuK(SO3)-Cy5-MAS3] ?
97

Param item: CC(=O)SCC(=O)NC(CO)C(=O)NC(CO)C(=O)NC(CO)C(=O)NCCCCCC(=O)NCCCCN1C(=CC=CC=CC2=[N+](CCCCCC(=O)NCCCCC(NC(=O)NC(CCC(=O)O)C(=O)O)C(=O)O)c3ccccc3C2(C)C)C(C)(C)c2ccccc21 (stereo not drawn) [EuK-Cy5-MAS3]
80

Param item: CC(=O)SCC(=O)NC(CO)C(=O)NC(CO)C(=O)NC(CO)C(=O)NCCCCCC(=O)NCCCCN1C(=CC=CC=CC2=[N+](CCCCCC(=O)NCCCCC(NC(=O)NC(CCC(=O)O)C(=O)O)C(=O)O)c3ccc4ccccc4c3C2(C)C)C(C)(C)c2ccccc21 (stereo not drawn) [EuK(Ar)-Cy5-MAS3]
85

Values from patent US12419976B2
